target: KRAS Q61H (Homo sapiens, UniProt P01116+P62937, Q61H); test: Ras-Raf disruption / FRET / MOA assay (BRAF RBD); format: biochemical
Sequence (P01116 1-169 isoform P01116-2 Q61H limits assumed, one chain of several): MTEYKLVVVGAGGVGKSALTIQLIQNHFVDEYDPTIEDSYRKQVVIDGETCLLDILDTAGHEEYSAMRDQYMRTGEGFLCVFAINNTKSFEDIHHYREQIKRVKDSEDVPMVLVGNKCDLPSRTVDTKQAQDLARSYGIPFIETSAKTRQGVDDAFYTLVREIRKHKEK
assay_endpoint: IC50

Some entries whose results are on file:
CCn1c(-c2cccnc2[C@H](C)OC)c2c3cc(ccc31)-c1cc(O)cc(c1)C[C@H](NC(=O)[C@H](C1CCCC1)N(C)C(=O)[C@@H](C)N(C)C(=O)[C@@H]1N[C@@H]1C1CC1)C(=O)N1CCC[C@H](N1)C(=O)OCC(C)(C)C2 [Example 327]: 1000 to 10000 nM
CCn1c(-c2cccnc2[C@H](C)OC)c2c3cc(ccc31)-c1cc(O)cc(c1)C[C@H](NC(=O)[C@H](C(C)C)N(C)C(=O)CN(C)C(=O)[C@@H]1N[C@H]1C1COC1)C(=O)N1CCC[C@H](N1)C(=O)OCC(C)(C)C2 [Example 283]: 10 to 100 nM
CCn1c(-c2cccnc2[C@H](C)OC)c2c3cc(ccc31)-c1cc(O)cc(c1)C[C@H](NC(=O)[C@H](C1CCCC1)N(C)C(=O)CN(C)C(=O)[C@H]1N[C@H]1C1(C#N)CC1)C(=O)N1CCC[C@H](N1)C(=O)OCC(C)(C)C2 [Example 316]: 10 to 100 nM

Which IC50 value is on record for CCn1c(-c2cccnc2[C@H](C)OC)c2c3cc(ccc31)-c1cc(O)cc(c1)C[C@H](NC(=O)[C@H](C1CCCC1)N(C)C(=O)CN(C)C(=O)[C@H]1N[C@H]1C1(OC)CC1)C(=O)N1CCC[C@H](N1)C(=O)OCC(C)(C)C2 (single isomer, unassigned) [Example 322] ? 10 to 100 nM

====

biological target: NRAS G12C (Homo sapiens, UniProt P01111+P62937, G12C); assay: Ras-Raf disruption / FRET / MOA assay (BRAF RBD); type: biochemical; conditions: NRAS G12C FRET data IC50, NRAS G12C
Sequence (P01111 whole entry G12C, one chain of several): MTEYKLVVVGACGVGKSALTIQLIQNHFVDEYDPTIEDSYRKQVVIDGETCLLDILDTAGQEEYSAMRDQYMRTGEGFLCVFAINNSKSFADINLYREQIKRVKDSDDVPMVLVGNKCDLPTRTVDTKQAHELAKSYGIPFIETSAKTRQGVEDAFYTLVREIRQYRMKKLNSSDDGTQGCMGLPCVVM
pIC50: −log10 of the molar value.
assay_endpoint: pIC50

CCn1c(-c2cccnc2[C@H](C)OC)c2c3cc(ccc31)-c1cc(O)cc(c1)C[C@H](NC(=O)[C@H](C(C)C)N(C)C(=O)CN(C)C(=O)[C@H]1N[C@H]1C1COC1)C(=O)N1CCC[C@H](N1)C(=O)OCC(C)(C)C2 [Example 282]: 7.00 to 8.00
CCn1c(-c2cccnc2[C@H](C)OC)c2c3cc(ccc31)-c1cc(O)cc(c1)C[C@H](NC(=O)[C@H](C(C)C)N(C)C(=O)CN(C)C(=O)[C@H]1CN1CCCN1CCCC1=O)C(=O)N1CCC[C@H](N1)C(=O)OCC(C)(C)C2 (stereo partly drawn) [Example 268]: > 8.00

Now take the following compound into account.
Which pIC50 value is on record for CCn1c(-c2cccnc2[C@H](C)OC)c2c3cc(ccc31)-c1cc(O)cc(c1)C[C@H](NC(=O)[C@H](C(C)C)N(C)C(=O)[C@@H](C)N(C)C(=O)[C@H]1CN1)C(=O)N1CCC[C@H](N1)C(=O)OCC(C)(C)C2 [Example 114] ? 7.00 to 8.00

====

Measured IC50 of individual entries
target: KRAS G12C (Homo sapiens, UniProt P01116+P62937, G12C); test: Disruption of BRAF RBD interaction with Ras (FRET / MOA assay, with Cyclophilin A); format: biochemical; settings: KRAS G12C; read-out: KRAS G12C FRET data IC50
Sequence (P01116 1-169 isoform P01116-2 G12C): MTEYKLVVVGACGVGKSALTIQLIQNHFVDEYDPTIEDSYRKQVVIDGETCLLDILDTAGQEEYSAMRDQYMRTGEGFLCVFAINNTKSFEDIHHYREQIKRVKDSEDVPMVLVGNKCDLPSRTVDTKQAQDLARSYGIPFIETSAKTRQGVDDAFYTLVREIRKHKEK
Sequence (P62937 whole entry): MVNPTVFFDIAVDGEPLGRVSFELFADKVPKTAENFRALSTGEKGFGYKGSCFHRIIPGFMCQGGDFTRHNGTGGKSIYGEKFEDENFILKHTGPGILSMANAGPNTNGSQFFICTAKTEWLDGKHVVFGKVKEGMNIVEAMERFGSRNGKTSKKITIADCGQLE

Some entries whose results are on file:
C=CC(=O)N1CC(OC[C@H](C(=O)N[C@H]2Cc3cc(F)cc(c3)-c3ccc4c(c3)c(c(-c3cccnc3[C@H](C)OC)n4CC)CC(C)(C)COC(=O)[C@@H]3CCCN(N3)C2=O)C(C)C)C1 (atropisomer, axis not shown) [Example A725]: 100 to 1000 nM
C=CC(=O)N1CC[C@H](C(=O)N(C)[C@H](C(=O)N[C@H]2Cc3cc(O)cc(c3)-c3ccc4c(c3)c(c(-c3ccc(CN5CC[C@@H](O)C5)cc3)n4CC)CC(C)(C)COC(=O)[C@@H]3CCCN(N3)C2=O)C(C)C)C1 [Examples A001]: 100 to 1000 nM
C=CC(=O)N1CC[C@H](C(=O)N(C)[C@H](C(=O)N[C@H]2Cc3cc(O)cc(c3)-c3ccc4c(c3)c(c(-c3cc(CN(C)C)cnc3COC)n4CC)CC(C)(C)COC(=O)[C@@H]3CCCN(N3)C2=O)C(C)C)C1 [Example A149]: 10 to 100 nM

Now take the following compound into account.
Which IC50 value is on record for C=CC(=O)N1CC2(CCN2C(=O)N(C)[C@H](C(=O)N[C@H]2Cc3nc(n(C)n3)-c3ccc4c(c3)c(c(-c3cccnc3[C@H](C)OC)n4CC)CC(C)(C)COC(=O)C3CCCN(N3)C2=O)C(C)C)C1 (stereo partly shown) [Example A612] ? 10 to 100 nM
